molecular target: T1, recombinant human GPC3 (glypican-3) (human, UniProt P51654 25-559); assay: SPR (Biacore T200), antibody captured by anti-Fc, GPC3 injected, single-cycle kinetics, 1:1 fit; average
T1 construct: also called huGPC3; hGPC3
Examples of binders with documented Kd follow.
Entry rule: numbers only, all in nM.

QUERY: // returns reported Kd for input v40210, H18L6_LC_G34S mAb (antibody, human IgG1, kappa, V domains shown, no number given for this variant) VH: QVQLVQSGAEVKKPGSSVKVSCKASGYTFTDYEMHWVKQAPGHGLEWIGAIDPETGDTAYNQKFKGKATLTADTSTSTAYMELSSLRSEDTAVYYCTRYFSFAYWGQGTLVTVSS VL: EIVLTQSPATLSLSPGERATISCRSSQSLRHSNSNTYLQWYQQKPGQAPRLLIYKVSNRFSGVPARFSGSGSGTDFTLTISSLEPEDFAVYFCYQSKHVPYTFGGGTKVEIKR
RESULT: 10.3

QUERY: // lookup Kd for v40206, H18L6_LC_G34R mAb (antibody, human IgG1, kappa, V domains shown) VH: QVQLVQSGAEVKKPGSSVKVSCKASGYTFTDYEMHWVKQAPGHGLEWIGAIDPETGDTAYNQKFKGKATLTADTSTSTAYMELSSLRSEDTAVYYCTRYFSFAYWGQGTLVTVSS VL: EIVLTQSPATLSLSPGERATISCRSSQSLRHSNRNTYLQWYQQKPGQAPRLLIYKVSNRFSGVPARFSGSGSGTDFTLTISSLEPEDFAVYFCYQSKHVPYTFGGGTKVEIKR
RESULT: 11.9

QUERY: Give the measured Kd of v40212, H18L6_LC_G34A mAb (antibody, human IgG1, kappa, V domains shown, no number given for this variant) VH: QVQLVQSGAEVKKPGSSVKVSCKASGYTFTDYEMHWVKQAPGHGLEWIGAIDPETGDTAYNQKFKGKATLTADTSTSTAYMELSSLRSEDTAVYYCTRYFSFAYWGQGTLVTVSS VL: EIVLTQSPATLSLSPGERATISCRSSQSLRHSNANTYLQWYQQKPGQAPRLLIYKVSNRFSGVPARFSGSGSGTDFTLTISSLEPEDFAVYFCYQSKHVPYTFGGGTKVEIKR .
RESULT: 12.5

QUERY: What measured Kd goes with v40219, H18L6_LC_N33A mAb (antibody, human IgG1, kappa, V domains shown, no number given for this variant) VH: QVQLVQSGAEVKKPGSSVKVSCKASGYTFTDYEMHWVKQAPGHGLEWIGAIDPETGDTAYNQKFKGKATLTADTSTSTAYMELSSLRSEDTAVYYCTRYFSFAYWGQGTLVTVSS VL: EIVLTQSPATLSLSPGERATISCRSSQSLRHSAGNTYLQWYQQKPGQAPRLLIYKVSNRFSGVPARFSGSGSGTDFTLTISSLEPEDFAVYFCYQSKHVPYTFGGGTKVEIKR ?
RESULT: 18.3

QUERY: Field request: Kd | item: v40217, H18L6_LC_N33K mAb (antibody, human IgG1, kappa, V domains shown, no number given for this variant) VH: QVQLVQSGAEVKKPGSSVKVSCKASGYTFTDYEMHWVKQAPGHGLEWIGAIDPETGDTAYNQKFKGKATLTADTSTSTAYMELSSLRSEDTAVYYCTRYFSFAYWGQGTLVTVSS VL: EIVLTQSPATLSLSPGERATISCRSSQSLRHSKGNTYLQWYQQKPGQAPRLLIYKVSNRFSGVPARFSGSGSGTDFTLTISSLEPEDFAVYFCYQSKHVPYTFGGGTKVEIKR
RESULT: 18.2
